Biological target: Vascular endothelial growth factor receptor 2 (Homo sapiens) (UniProt P35968)
Sequence (P35968 whole entry): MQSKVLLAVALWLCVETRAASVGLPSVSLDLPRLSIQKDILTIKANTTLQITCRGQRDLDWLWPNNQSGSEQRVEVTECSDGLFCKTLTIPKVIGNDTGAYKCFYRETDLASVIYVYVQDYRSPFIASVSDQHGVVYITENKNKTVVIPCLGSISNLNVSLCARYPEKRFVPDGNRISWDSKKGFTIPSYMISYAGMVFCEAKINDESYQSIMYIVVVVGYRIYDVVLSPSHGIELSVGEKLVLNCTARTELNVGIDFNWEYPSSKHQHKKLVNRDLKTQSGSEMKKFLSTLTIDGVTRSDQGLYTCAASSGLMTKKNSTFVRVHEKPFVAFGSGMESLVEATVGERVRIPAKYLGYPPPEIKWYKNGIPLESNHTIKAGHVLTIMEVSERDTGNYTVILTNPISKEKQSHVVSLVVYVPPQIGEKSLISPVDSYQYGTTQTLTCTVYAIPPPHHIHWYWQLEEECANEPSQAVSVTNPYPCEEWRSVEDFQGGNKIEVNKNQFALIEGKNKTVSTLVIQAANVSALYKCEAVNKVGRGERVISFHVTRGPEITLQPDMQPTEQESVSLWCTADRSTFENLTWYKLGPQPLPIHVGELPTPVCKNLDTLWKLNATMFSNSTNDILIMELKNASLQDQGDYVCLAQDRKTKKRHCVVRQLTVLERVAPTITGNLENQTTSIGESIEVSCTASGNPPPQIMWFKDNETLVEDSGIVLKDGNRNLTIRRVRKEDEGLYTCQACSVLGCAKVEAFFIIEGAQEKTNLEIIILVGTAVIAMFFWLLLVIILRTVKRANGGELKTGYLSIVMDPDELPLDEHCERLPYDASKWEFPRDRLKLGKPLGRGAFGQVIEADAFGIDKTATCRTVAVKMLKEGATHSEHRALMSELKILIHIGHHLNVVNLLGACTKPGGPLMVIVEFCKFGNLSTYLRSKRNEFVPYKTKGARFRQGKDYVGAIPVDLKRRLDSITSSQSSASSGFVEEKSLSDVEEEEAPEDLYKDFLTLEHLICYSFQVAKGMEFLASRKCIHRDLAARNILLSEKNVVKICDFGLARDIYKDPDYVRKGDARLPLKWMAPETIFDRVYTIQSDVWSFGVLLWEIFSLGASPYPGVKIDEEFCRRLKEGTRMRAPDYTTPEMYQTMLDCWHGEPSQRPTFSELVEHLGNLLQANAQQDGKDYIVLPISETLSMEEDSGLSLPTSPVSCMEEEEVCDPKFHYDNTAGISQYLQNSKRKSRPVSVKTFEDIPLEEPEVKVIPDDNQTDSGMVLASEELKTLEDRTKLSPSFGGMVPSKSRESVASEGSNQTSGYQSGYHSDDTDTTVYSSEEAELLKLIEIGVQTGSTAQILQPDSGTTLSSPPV
Assay: Inhibition of KDR (unknown origin) at 1 uM relative to control
Listed below: inhibition values for each entry.

[Q] I would be grateful if you could share the reported inhibition for Oc1cccc(-c2nc(N3CCOCC3)c3oc4ncccc4c3n2)c1 .
[A] 2.4%

[Q] I would be grateful if you could share the reported inhibition for C=CC(=O)Nc1cccc(Oc2nc(Nc3cccc(C#N)c3)nc3c2CSCC3)c1 .
[A] -0.9%

[Q] I would be grateful if you could share the reported inhibition for C=CC(=O)Nc1cccc(Oc2nc(Nc3ccc(OC)cc3)nc3c2CSCC3)c1 .
[A] 3.9%

====

Molecular target: Epidermal growth factor receptor (Homo sapiens, UniProt P00533)
Sequence (P00533 whole entry): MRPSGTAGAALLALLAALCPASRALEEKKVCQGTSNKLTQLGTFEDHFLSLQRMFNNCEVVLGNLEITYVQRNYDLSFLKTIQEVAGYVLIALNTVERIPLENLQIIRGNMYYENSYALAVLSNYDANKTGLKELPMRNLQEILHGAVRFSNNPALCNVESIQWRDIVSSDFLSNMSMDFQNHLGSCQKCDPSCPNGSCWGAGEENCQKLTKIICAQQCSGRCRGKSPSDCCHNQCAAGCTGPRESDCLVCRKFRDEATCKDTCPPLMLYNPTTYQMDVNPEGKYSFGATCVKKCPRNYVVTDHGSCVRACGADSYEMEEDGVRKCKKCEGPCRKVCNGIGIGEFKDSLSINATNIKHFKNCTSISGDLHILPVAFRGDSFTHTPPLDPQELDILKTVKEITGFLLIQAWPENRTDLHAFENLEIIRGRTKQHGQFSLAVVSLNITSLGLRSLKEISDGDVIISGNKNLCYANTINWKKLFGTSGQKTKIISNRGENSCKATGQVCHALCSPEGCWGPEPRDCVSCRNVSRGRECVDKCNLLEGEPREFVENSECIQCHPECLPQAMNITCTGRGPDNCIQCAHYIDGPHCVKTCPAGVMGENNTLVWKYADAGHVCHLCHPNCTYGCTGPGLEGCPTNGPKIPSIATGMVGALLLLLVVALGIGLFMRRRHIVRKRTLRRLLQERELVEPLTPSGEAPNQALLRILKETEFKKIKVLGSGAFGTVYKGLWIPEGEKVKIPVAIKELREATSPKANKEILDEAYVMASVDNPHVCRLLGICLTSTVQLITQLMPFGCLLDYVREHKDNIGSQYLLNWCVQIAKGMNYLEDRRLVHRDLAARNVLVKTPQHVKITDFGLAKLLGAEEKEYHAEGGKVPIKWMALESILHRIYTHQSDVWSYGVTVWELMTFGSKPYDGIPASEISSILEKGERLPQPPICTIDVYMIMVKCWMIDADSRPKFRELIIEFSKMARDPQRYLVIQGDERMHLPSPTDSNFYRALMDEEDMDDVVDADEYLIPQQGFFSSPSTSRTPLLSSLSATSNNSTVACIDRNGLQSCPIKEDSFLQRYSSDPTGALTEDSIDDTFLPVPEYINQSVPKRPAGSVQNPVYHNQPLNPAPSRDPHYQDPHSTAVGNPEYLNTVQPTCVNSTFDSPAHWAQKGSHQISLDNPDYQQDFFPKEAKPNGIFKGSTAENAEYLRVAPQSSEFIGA
pIC50: −log10 of the molar value.
Listed below: pIC50 values for each entry.

smilesEntry | assayMetric | result
CCC/C=C/C(=O)Nc1cccc(Oc2nc(Nc3ccn(C)n3)nc3c2CSCC3)c1 | pIC50 | < 6.00
CCC/C=C/C(=O)Nc1cccc(Oc2nc(Nc3cccc(C#N)c3)nc3c2CSCC3)c1 | pIC50 | < 6.00
C=CC(=O)Nc1cccc(Oc2nc(Nc3ccc(OC)cc3)nc3c2CSCC3)c1 | pIC50 | < 6.00

Please turn your attention to the following entry.
[Q] Give pIC50 (Epidermal growth factor receptor (Homo sapiens, UniProt P00533)) of the following compound: C=CC(=O)Nc1cccc(Oc2nc(Nc3cccc(C#N)c3)nc3c2CSCC3)c1
[A] < 6.00

====

Species on record: Homo sapiens
Experiment: Inhibition of PI3K (unknown origin) at 1 uM relative to control
assayMetric: inhibition

For orientation, consider the following solved cases.
smilesEntry | result
C=CC(=O)Nc1cccc(Oc2nc(Nc3ccc(OC)cc3)nc3c2CSCC3)c1 | 48.1%
C=CC(=O)Nc1cccc(Oc2nc(Nc3cccc(C#N)c3)nc3c2CSCC3)c1 | 44.3%
Oc1cccc(-c2nc(N3CCOCC3)c3oc4ncccc4c3n2)c1 | 99.8%

[Q] I would be grateful if you could share the reported inhibition for CCC/C=C/C(=O)Nc1cccc(Oc2nc(Nc3cccc(C#N)c3)nc3c2CSCC3)c1 .
[A] 62.2%

====

Listed below: selectivity ratio at 72 h values for each entry.
Experiment: Selectivity index, ratio of IC50 for human L02 cells to IC50 for human A549 cells assessed as reduction in cell viability measured after 72 hrs by MTT assay
Format: toxicity
Conditions: L02 cells versus A549 cells, read-out: Ratio IC50

smilesEntry | selectivity ratio at 72 h
COc1ccc(Nc2nc3c(c(Oc4cccc(NC(=O)C=C(C)C)c4)n2)CSCC3)cc1 | > 1.86
COc1cccc(Nc2nc3c(c(Oc4cccc(NC(=O)C=C(C)C)c4)n2)CSCC3)c1 | > 2.52
CCC/C=C/C(=O)Nc1cccc(Oc2nc(Nc3cccc(OC)c3)nc3c2CSCC3)c1 | > 4.23
CCC/C=C/C(=O)Nc1cccc(Oc2nc(Nc3cccc(C#N)c3)nc3c2CSCC3)c1 | > 8.64
C/C=C/C(=O)Nc1cccc(Oc2nc(Nc3ccc(OC)cc3)nc3c2CSCC3)c1 | > 2.25

[Q] I would be grateful if you could share the reported selectivity ratio at 72 h for COc1cccc(Nc2nc3c(c(Oc4cccc(NC(=O)/C=C/C(C)C)c4)n2)CSCC3)c1 .
[A] > 1.98

[Q] I would be grateful if you could share the reported selectivity ratio at 72 h for C=C(F)C(=O)Nc1cccc(Oc2nc(Nc3cccc(OC)c3)nc3c2CSCC3)c1 .
[A] 1.39

====

Listed below: selectivity ratio at 72 h values for each entry.
Assay: Selectivity index, ratio of IC50 for human L02 cells to IC50 for human A549 cells assessed as reduction in cell viability measured after 72 hrs by MTT assay
Assay type: toxicity
Conditions: L02 cells versus A549 cells, read-out: Ratio IC50

smilesEntry | assayMetric | result
CC(C)=CC(=O)Nc1cccc(Oc2nc(Nc3cccc(C#N)c3)nc3c2CSCC3)c1 | selectivity ratio at 72 h | > 1.36

[Q] I would be grateful if you could share the reported selectivity ratio at 72 h for CCC/C=C/C(=O)Nc1cccc(Oc2nc(Nc3ccc(OC)nc3)nc3c2CSCC3)c1 .
[A] > 4.62

[Q] I would be grateful if you could share the reported selectivity ratio at 72 h for C=C(F)C(=O)Nc1cccc(Oc2nc(Nc3ccn(C)n3)nc3c2CSCC3)c1 .
[A] < 0.96

[Q] I would be grateful if you could share the reported selectivity ratio at 72 h for CC(C)/C=C/C(=O)Nc1cccc(Oc2nc(Nc3ccn(C)n3)nc3c2CSCC3)c1 .
[A] > 1.49

[Q] I would be grateful if you could share the reported selectivity ratio at 72 h for CC/C=C/C(=O)Nc1cccc(Oc2nc(Nc3ccc(OC)cc3)nc3c2CSCC3)c1 .
[A] > 2.49

====

Target: Epidermal growth factor receptor (Homo sapiens, UniProt P00533, T790M)
Sequence (P00533 25-1210 T790M limits assumed): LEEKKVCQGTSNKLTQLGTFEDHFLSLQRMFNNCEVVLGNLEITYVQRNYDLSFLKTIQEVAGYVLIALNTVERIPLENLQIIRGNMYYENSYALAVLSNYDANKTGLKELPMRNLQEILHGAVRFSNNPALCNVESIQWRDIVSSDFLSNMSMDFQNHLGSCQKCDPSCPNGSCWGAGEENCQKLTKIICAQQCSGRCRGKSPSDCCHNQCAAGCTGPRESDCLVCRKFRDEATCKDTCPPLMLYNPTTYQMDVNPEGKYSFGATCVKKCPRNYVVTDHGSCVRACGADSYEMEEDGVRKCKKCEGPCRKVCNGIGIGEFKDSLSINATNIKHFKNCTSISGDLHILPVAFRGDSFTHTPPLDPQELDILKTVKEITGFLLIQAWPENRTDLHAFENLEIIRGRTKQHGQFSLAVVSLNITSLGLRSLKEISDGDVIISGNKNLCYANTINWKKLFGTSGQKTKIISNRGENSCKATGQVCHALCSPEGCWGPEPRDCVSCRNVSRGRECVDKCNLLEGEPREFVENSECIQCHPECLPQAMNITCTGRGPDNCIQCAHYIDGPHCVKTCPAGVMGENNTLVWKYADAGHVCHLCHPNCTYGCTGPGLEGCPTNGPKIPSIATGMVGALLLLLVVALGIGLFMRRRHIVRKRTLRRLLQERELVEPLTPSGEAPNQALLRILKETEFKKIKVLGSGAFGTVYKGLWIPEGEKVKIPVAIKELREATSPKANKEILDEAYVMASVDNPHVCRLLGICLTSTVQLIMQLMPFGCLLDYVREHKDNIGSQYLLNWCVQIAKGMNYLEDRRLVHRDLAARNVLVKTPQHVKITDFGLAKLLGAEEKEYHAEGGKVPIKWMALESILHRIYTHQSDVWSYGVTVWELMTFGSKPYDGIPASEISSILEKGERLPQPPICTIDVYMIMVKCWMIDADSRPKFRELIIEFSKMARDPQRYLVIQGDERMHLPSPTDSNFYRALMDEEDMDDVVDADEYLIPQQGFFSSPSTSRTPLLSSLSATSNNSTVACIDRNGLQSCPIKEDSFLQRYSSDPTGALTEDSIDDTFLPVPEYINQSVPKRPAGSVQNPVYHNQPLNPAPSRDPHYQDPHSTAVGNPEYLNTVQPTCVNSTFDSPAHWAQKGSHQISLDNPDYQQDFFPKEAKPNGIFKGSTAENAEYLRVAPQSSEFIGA
Test: Inhibition of EGFR T790M mutant (unknown origin) using FAM-labelled peptide as substrate incubated for 10 mins fin presence of ATP by Kinase Glo luminescence assay
assayMetric: IC50

For orientation, consider the following solved cases.
smilesEntry | IC50
CCC/C=C/C(=O)Nc1cccc(Oc2nc(Nc3cccc(C#N)c3)nc3c2CSCC3)c1 | > 1 µM
CCC/C=C/C(=O)Nc1cccc(Oc2nc(Nc3ccn(C)n3)nc3c2CSCC3)c1 | > 1 µM
C=CC(=O)Nc1cccc(Oc2nc(Nc3ccc(OC)cc3)nc3c2CSCC3)c1 | 0.542 µM
C=CC(=O)Nc1cccc(Oc2nc(Nc3cccc(C#N)c3)nc3c2CSCC3)c1 | > 1 µM

Please turn your attention to the following entry.
[Q] I would be grateful if you could share the reported IC50 for C/C=C/C(=O)Nc1cccc(Oc2nc(Nc3ccc(OC)nc3)nc3c2CSCC3)c1 .
[A] > 1 µM

====

Listed below: selectivity ratio at 72 h values for each entry.
Assay: Selectivity index, ratio of IC50 for human L02 cells to IC50 for human A549 cells assessed as reduction in cell viability measured after 72 hrs by MTT assay
Type: toxicity
Conditions: L02 cells versus A549 cells, read-out: Ratio IC50

For orientation, consider the following solved cases.
smilesEntry | selectivity ratio at 72 h
CC/C=C/C(=O)Nc1cccc(Oc2nc(Nc3cccc(C#N)c3)nc3c2CSCC3)c1 | > 4.95
CC(C)=CC(=O)Nc1cccc(Oc2nc(Nc3ccn(C)n3)nc3c2CSCC3)c1 | > 1.13
CC/C=C/C(=O)Nc1cccc(Oc2nc(Nc3cccc(OC)c3)nc3c2CSCC3)c1 | > 2.9
C=C(C)C(=O)Nc1cccc(Oc2nc(Nc3ccn(C)n3)nc3c2CSCC3)c1 | > 1.06
CCC/C=C/C(=O)Nc1cccc(Oc2nc(Nc3ccn(C)n3)nc3c2CSCC3)c1 | > 6.1

[Q] I would be grateful if you could share the reported selectivity ratio at 72 h for C/C=C/C(=O)Nc1cccc(Oc2nc(Nc3cccc(C#N)c3)nc3c2CSCC3)c1 .
[A] > 2.91

[Q] I would be grateful if you could share the reported selectivity ratio at 72 h for C=CC(=O)Nc1cccc(Oc2nc(Nc3ccn(C)n3)nc3c2CSCC3)c1 .
[A] > 2.7

[Q] I would be grateful if you could share the reported selectivity ratio at 72 h for C=CC(=O)Nc1cccc(Oc2nc(Nc3ccc(OC)cc3)nc3c2CSCC3)c1 .
[A] > 11.8

[Q] I would be grateful if you could share the reported selectivity ratio at 72 h for CC(C)/C=C/C(=O)Nc1cccc(Oc2nc(Nc3cccc(C#N)c3)nc3c2CSCC3)c1 .
[A] > 1.39

[Q] I would be grateful if you could share the reported selectivity ratio at 72 h for CCC/C=C/C(=O)Nc1cccc(Oc2nc(Nc3ccc(OC)cc3)nc3c2CSCC3)c1 .
[A] > 4.21

====

Target: Hepatocyte growth factor receptor (Homo sapiens)
Assay: Inhibition of C-MET (unknown origin) at 1 uM relative to control
assayMetric: inhibition (%)

[a] C=CC(=O)Nc1cccc(Oc2nc(Nc3cccc(C#N)c3)nc3c2CSCC3)c1
[b] CCC/C=C/C(=O)Nc1cccc(Oc2nc(Nc3cccc(C#N)c3)nc3c2CSCC3)c1
[c] C=CC(=O)Nc1cccc(Oc2nc(Nc3ccc(N4CCN(C)CC4)cc3)nc3ccsc23)c1 [OLMUTINIB]
[d] C=CC(=O)Nc1cccc(Oc2nc(Nc3ccc(OC)cc3)nc3c2CSCC3)c1
[Q] Using measured inhibition, arrange the compounds from above in descending sequence. Reply: labels, ordered per the request.
[A] c, b, a, d
(c: 7.1%, b: 3.6%, a: 2.4%, d: 0.5%)

====

Target: Epidermal growth factor receptor (Homo sapiens, UniProt P00533, L858R/T790M)
Sequence (P00533 25-1210 T790M/L858R limits assumed): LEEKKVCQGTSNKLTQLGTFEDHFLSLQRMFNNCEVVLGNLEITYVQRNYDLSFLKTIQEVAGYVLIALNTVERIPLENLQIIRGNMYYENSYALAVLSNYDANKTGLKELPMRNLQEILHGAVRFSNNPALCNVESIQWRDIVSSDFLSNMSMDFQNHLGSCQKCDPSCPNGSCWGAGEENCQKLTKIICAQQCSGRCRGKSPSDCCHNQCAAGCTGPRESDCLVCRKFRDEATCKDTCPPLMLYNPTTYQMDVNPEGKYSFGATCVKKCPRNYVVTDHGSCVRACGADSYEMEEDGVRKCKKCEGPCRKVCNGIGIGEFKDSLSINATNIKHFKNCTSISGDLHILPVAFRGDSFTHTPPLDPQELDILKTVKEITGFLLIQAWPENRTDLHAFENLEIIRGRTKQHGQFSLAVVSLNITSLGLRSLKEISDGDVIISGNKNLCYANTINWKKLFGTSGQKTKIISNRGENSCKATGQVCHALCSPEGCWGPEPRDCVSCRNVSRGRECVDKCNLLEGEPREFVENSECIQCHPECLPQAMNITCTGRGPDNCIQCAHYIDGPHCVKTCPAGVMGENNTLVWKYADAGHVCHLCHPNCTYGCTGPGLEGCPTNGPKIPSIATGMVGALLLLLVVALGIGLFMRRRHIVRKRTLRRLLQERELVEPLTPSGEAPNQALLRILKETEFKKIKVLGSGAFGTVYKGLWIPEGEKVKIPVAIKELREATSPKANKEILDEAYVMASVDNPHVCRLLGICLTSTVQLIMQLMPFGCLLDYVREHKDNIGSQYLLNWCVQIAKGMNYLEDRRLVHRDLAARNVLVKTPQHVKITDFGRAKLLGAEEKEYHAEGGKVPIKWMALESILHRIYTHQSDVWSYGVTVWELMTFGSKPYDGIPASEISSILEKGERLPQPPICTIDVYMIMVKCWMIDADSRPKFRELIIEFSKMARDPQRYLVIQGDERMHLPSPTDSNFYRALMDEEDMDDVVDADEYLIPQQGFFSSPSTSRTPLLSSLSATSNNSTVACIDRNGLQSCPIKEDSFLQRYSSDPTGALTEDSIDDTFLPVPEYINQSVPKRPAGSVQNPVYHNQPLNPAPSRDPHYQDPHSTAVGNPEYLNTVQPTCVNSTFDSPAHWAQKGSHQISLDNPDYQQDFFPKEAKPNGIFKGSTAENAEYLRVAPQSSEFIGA
Test: Inhibition of EGFR T790M/L858R mutant (unknown origin) using FAM-labelled peptide as substrate incubated for 10 mins in presence of ATP by Kinase Glo luminescence assay
Listed below: IC50 values for each entry.

smilesEntry | result
CCC/C=C/C(=O)Nc1cccc(Oc2nc(Nc3cccc(C#N)c3)nc3c2CSCC3)c1 | > 1 µM
C=CC(=O)Nc1cccc(Oc2nc(Nc3cccc(C#N)c3)nc3c2CSCC3)c1 | > 1 µM

Please turn your attention to the following entry.
[Q] I would be grateful if you could share the reported IC50 for C=CC(=O)Nc1cccc(Oc2nc(Nc3ccc(OC)cc3)nc3c2CSCC3)c1 .
[A] 0.132 µM
